Counter-ions that a name gives are not always drawn.
# reported melting point; entries follow

Example entries begin here.
• N=C(NCCCCc1ccc(CCCCN(C[C@H](O)c2ccc(O)c(NC=O)c2)C[C@H](O)c2ccc(O)c(NC=O)c2)cc1)NC(=O)c1nc(Cl)c(N)nc1N (as salt: salt) [Compound 14, diacetic acid salt] = 128 to 130 °C
• CC(CCCc1ccc(CCCCNC(=N)NC(=O)c2nc(Cl)c(N)nc2N)cc1)NC[C@H](O)c1cccc(O)c1 (stereo partly drawn) = 82 to 86 °C

Challenge: # melting point lookup, item C[C@H](CCCc1ccc(CCCCNC(=N)NC(=O)c2nc(Cl)c(N)nc2N)cc1)NC[C@H](O)c1ccc(O)c(NC=O)c1 (as salt: lactate) (hydrate or solvate) [Compound 30]
Response given: 116 to 119 °C

----------
# reported ENaC blocking potency relative to Amiloride; entries follow
Molecular target: epithelial sodium channel (ENaC) (Canis lupus familiaris, UniProt A0A8I3MKE6+A0A8I3Q679+Q95165)
Construct: endogenous in cells; host or cells: primary canine bronchial epithelial cells cultured at air-liquid interface
Sequence (A0A8I3Q679 1-649): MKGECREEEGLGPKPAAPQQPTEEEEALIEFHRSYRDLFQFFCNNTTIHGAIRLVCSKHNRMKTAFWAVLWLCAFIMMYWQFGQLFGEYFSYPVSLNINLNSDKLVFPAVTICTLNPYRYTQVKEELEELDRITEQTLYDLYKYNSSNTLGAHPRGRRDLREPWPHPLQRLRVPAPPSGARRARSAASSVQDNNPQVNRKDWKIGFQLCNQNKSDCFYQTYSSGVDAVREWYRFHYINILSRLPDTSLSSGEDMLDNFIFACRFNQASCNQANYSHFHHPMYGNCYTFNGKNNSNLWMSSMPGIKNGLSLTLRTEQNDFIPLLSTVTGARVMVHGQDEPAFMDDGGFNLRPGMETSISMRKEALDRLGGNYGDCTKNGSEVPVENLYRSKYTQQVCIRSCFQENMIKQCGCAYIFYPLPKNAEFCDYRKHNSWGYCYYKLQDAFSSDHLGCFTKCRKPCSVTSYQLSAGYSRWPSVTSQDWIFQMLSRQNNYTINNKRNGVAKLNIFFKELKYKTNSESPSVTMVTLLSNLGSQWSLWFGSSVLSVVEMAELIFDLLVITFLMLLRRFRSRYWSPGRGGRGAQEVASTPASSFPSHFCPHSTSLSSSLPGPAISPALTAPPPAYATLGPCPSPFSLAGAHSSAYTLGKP
Sequence (Q95165 whole entry): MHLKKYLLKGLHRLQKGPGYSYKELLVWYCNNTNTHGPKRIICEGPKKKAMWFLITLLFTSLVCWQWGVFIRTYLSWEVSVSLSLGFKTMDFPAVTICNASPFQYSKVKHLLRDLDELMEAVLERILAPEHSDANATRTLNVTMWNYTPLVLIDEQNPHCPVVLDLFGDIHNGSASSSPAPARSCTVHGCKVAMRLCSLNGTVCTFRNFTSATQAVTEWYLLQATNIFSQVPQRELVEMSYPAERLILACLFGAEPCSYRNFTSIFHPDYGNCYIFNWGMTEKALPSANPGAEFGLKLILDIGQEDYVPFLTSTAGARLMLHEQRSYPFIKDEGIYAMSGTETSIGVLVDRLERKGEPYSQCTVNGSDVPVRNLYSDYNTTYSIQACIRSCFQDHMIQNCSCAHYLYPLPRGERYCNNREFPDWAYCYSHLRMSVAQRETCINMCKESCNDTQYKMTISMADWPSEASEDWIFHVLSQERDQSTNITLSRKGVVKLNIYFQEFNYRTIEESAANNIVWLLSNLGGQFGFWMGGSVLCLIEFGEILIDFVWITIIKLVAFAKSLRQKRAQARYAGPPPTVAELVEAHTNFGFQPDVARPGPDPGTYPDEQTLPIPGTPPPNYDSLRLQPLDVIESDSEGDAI
Sequence (A0A8I3MKE6 1-646): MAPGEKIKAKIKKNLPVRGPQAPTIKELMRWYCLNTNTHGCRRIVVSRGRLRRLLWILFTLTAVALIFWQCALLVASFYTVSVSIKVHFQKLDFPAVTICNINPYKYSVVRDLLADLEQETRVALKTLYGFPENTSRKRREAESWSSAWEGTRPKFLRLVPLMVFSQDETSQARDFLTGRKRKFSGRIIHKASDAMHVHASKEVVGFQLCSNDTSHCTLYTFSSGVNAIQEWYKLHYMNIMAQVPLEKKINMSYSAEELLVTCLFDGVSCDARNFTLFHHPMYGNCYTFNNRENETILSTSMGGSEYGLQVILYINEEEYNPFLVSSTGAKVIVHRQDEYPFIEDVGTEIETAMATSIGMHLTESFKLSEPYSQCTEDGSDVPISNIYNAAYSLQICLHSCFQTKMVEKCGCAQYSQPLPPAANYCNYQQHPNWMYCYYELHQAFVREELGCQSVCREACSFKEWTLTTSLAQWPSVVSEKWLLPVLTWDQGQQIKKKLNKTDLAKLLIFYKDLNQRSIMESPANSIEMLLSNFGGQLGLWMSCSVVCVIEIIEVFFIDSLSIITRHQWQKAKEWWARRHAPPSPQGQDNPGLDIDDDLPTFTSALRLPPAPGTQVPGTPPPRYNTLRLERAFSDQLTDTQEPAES
Test: ENaC blocking activity, short circuit current in airway epithelial monolayers in Ussing chambers
Format: cell-based
Conditions: canine bronchial epithelia; fold potency versus amiloride
Quick note: give the figure in × Amiloride, leave out the unit.

Example entries begin here.
* N=C(NCCCCc1ccc(CCCCNC[C@H](O)c2ccc(O)c(NC=O)c2)cc1)NC(=O)c1nc(Cl)c(N)nc1N | 132
* N=C(NCCCCc1ccc(OCCNC[C@H](O)c2ccc(O)c(NC=O)c2)cc1)NC(=O)c1nc(Cl)c(N)nc1N | 120
* C[C@H](CCCc1ccc(CCCCNC(=N)NC(=O)c2nc(Cl)c(N)nc2N)cc1)NC[C@H](O)c1ccc(O)c(NC=O)c1 | 93

Then this compound:
Challenge: # ENaC blocking potency relative to Amiloride lookup, item CS(=O)(=O)Nc1cc([C@@H](O)CNCCCCc2ccc(CCCCNC(=N)NC(=O)c3nc(Cl)c(N)nc3N)cc2)ccc1O
Response given: 91

----------
Structures can show the parent of a compound that is named as a salt.
endpoint.label: melting point

Example entries begin here.
* CC(=O)Nc1cc([C@@H](O)CNC(C)CCCc2ccc(CCCCNC(=N)NC(=O)c3nc(Cl)c(N)nc3N)cc2)ccc1O (stereo in doubt) (as salt: lactate) | 46 to 50 °C (dec.)
* CS(=O)(=O)Nc1cc([C@@H](O)CN(CCCCc2ccc(CCCCNC(=N)NC(=O)c3nc(Cl)c(N)nc3N)cc2)C[C@H](O)c2ccc(O)c(NS(C)(=O)=O)c2)ccc1O | 148 to 150 °C
* C[C@H](CCCc1ccc(CCCCNC(=N)NC(=O)c2nc(Cl)c(N)nc2N)cc1)NC[C@H](O)c1ccc(O)c(NC=O)c1 [Compound 30] | 120 to 121 °C (dec.)
* CS(=O)(=O)Nc1cc([C@@H](O)CNCCCCc2ccc(CCCCNC(=N)NC(=O)c3nc(Cl)c(N)nc3N)cc2)ccc1O | 108 to 110 °C
* N=C(NCCCCc1ccc(CCCCNC[C@H](O)c2ccc(O)c(NC=O)c2)cc1)NC(=O)c1nc(Cl)c(N)nc1N | 138 to 140 °C

Then this compound:
Challenge: # melting point lookup, item N=C(NCCCCc1ccc(OCCNC[C@H](O)c2ccc(O)c(NC=O)c2)cc1)NC(=O)c1nc(Cl)c(N)nc1N
Response given: 120 to 124 °C (dec.)
